system: Acinetobacter baumannii; assay: Antimicrobial activity against Acinetobacter baumannii alpha clonal group isolate 4 expressing ampC, ompA, adeB, adeM, aacC1, aadA1 by Etest method; format: functional
measurement_kind: MIC (µg/mL)
Answer in µg/mL, number only, no unit symbol.

Hi! What's the reported MIC for CN(C)c1cc(NC(=O)CNC(C)(C)C)c(O)c2c1C[C@H]1C[C@H]3[C@H](N(C)C)C(O)=C(C(N)=O)C(=O)[C@@]3(O)C(O)=C1C2=O [TIGECYCLINE] on Acinetobacter baumannii?
1

Next:
Hi! What's the reported MIC for NCC[C@H](O)C(=O)N[C@@H]1C[C@H](N)[C@@H](O[C@H]2O[C@H](CN)[C@@H](O)[C@H](O)[C@H]2O)[C@H](O)[C@H]1O[C@H]1O[C@H](CO)[C@@H](O)[C@H](N)[C@H]1O [AMIKACIN] on Acinetobacter baumannii?
2

Hi! What's the reported MIC for C[C@@H](O)[C@H]1C(=O)N2C(C(=O)O)=C(S[C@@H]3CN[C@H](C(=O)N(C)C)C3)[C@H](C)[C@H]12 [MEROPENEM] on Acinetobacter baumannii?
1.5

Hi! What's the reported MIC for C[C@@H](O)[C@H]1C(=O)N2C(C(=O)O)=C(SCCNC=N)C[C@H]12 [IMIPENEM ANHYDROUS] on Acinetobacter baumannii?
0.38

----------
tested on: Acinetobacter baumannii; test: Antimicrobial activity against ISAba1 linked with the blaOXA-51-type beta-lactamase harboring Acinetobacter baumannii beta clonal group isolate 16 expressing ompA, adeB, adeM, aacA4, blaSHV-5 by Etest method; type: functional
# MIC listing for each entry below

As a guide, the following entries are already answered.
Given `NCC[C@H](O)C(=O)N[C@@H]1C[C@H](N)[C@@H](O[C@H]2O[C@H](CN)[C@@H](O)[C@H](O)[C@H]2O)[C@H](O)[C@H]1O[C@H]1O[C@H](CO)[C@@H](O)[C@H](N)[C@H]1O` , state its recorded MIC.
8 µg/mL

Given `CN(C)c1cc(NC(=O)CNC(C)(C)C)c(O)c2c1C[C@H]1C[C@H]3[C@H](N(C)C)C(O)=C(C(N)=O)C(=O)[C@@]3(O)C(O)=C1C2=O` , state its recorded MIC.
0.5 µg/mL

Given `CC(C)(O/N=C(\C(=O)N[C@@H]1C(=O)N2C(C(=O)[O-])=C(C[n+]3ccccc3)CS[C@H]12)c1csc(N)n1)C(=O)O` , state its recorded MIC.
> 48 µg/mL

Given `C[C@@H](O)[C@H]1C(=O)N2C(C(=O)O)=C(S[C@@H]3CN[C@H](C(=O)N(C)C)C3)[C@H](C)[C@H]12` , state its recorded MIC.
> 32 µg/mL

Given `C[C@H]1COc2c(N3CCN(C)CC3)c(F)cc3c(=O)c(C(=O)O)cn1c23.C[C@H]1COc2c(N3CCN(C)CC3)c(F)cc3c(=O)c(C(=O)O)cn1c23.O` , state its recorded MIC.
> 32 µg/mL

Next:
Given C[C@@H](O)[C@H]1C(=O)N2C(C(=O)O)=C(SCCNC=N)C[C@H]12 [IMIPENEM ANHYDROUS] , state its recorded MIC.
> 16 µg/mL

----------
system: Acinetobacter baumannii; assay: Antimicrobial activity against Acinetobacter baumannii nu clonal group isolate 34 expressing ampC, ompA, adeB, adeM by Etest method; assay type: functional
measurement_kind: MIC (µg/mL)
Answer in µg/mL, number only, no unit symbol.

As a guide, the following entries are already answered.
Given `CN(C)c1cc(NC(=O)CNC(C)(C)C)c(O)c2c1C[C@H]1C[C@H]3[C@H](N(C)C)C(O)=C(C(N)=O)C(=O)[C@@]3(O)C(O)=C1C2=O` , state its recorded MIC.
0.5

Given `CC(C)(O/N=C(\C(=O)N[C@@H]1C(=O)N2C(C(=O)[O-])=C(C[n+]3ccccc3)CS[C@H]12)c1csc(N)n1)C(=O)O` , state its recorded MIC.
6

Given `C[C@@H](O)[C@H]1C(=O)N2C(C(=O)O)=C(S[C@@H]3CN[C@H](C(=O)N(C)C)C3)[C@H](C)[C@H]12` , state its recorded MIC.
0.38

Given `C[C@H]1COc2c(N3CCN(C)CC3)c(F)cc3c(=O)c(C(=O)O)cn1c23.C[C@H]1COc2c(N3CCN(C)CC3)c(F)cc3c(=O)c(C(=O)O)cn1c23.O` , state its recorded MIC.
4

Given C[C@@H](O)[C@H]1C(=O)N2C(C(=O)O)=C(SCCNC=N)C[C@H]12 [IMIPENEM ANHYDROUS] , state its recorded MIC.
0.25

Next:
Given `NCC[C@H](O)C(=O)N[C@@H]1C[C@H](N)[C@@H](O[C@H]2O[C@H](CN)[C@@H](O)[C@H](O)[C@H]2O)[C@H](O)[C@H]1O[C@H]1O[C@H](CO)[C@@H](O)[C@H](N)[C@H]1O` , state its recorded MIC.
3

----------
test system: Acinetobacter baumannii; test: Antimicrobial activity against Acinetobacter baumannii unique clonal group isolate 37 expressing ampC, ompA, adeB, adeM by Etest method; type: functional
measurement_kind: MIC (µg/mL)
Answer in µg/mL, number only, no unit symbol.

Given `C[C@H]1COc2c(N3CCN(C)CC3)c(F)cc3c(=O)c(C(=O)O)cn1c23.C[C@H]1COc2c(N3CCN(C)CC3)c(F)cc3c(=O)c(C(=O)O)cn1c23.O` , state its recorded MIC.
6

Given `NCC[C@H](O)C(=O)N[C@@H]1C[C@H](N)[C@@H](O[C@H]2O[C@H](CN)[C@@H](O)[C@H](O)[C@H]2O)[C@H](O)[C@H]1O[C@H]1O[C@H](CO)[C@@H](O)[C@H](N)[C@H]1O` , state its recorded MIC.
6

Given C[C@@H](O)[C@H]1C(=O)N2C(C(=O)O)=C(SCCNC=N)C[C@H]12 [IMIPENEM ANHYDROUS] , state its recorded MIC.
0.5

Given `CN(C)c1cc(NC(=O)CNC(C)(C)C)c(O)c2c1C[C@H]1C[C@H]3[C@H](N(C)C)C(O)=C(C(N)=O)C(=O)[C@@]3(O)C(O)=C1C2=O` , state its recorded MIC.
0.25

Given `CC(C)(O/N=C(\C(=O)N[C@@H]1C(=O)N2C(C(=O)[O-])=C(C[n+]3ccccc3)CS[C@H]12)c1csc(N)n1)C(=O)O` , state its recorded MIC.
12

Given `C[C@@H](O)[C@H]1C(=O)N2C(C(=O)O)=C(S[C@@H]3CN[C@H](C(=O)N(C)C)C3)[C@H](C)[C@H]12` , state its recorded MIC.
1.5

----------
test system: Acinetobacter baumannii; assay: Antimicrobial activity against ISAba1 linked with the blaOXA-51-type beta-lactamase harboring Acinetobacter baumannii beta clonal group isolate 11 expressing ompA, adeB, adeM, blaSHV-5 by Etest method; format: functional
measurement_kind: MIC

Given `CC(C)(O/N=C(\C(=O)N[C@@H]1C(=O)N2C(C(=O)[O-])=C(C[n+]3ccccc3)CS[C@H]12)c1csc(N)n1)C(=O)O` , state its recorded MIC.
128 mg/L

Given C[C@@H](O)[C@H]1C(=O)N2C(C(=O)O)=C(SCCNC=N)C[C@H]12 [IMIPENEM ANHYDROUS] , state its recorded MIC.
> 32 mg/L

Given `C[C@H]1COc2c(N3CCN(C)CC3)c(F)cc3c(=O)c(C(=O)O)cn1c23.C[C@H]1COc2c(N3CCN(C)CC3)c(F)cc3c(=O)c(C(=O)O)cn1c23.O` , state its recorded MIC.
> 32 mg/L

----------
tested on: Acinetobacter baumannii; assay: Antimicrobial activity against Acinetobacter baumannii eta clonal group isolate 35 expressing ampC, ompA, adeB, adeM by Etest method; format: functional
measurement_kind: MIC

Hi! What's the reported MIC for C[C@@H](O)[C@H]1C(=O)N2C(C(=O)O)=C(SCCNC=N)C[C@H]12 [IMIPENEM ANHYDROUS] on Acinetobacter baumannii?
0.25 µg/mL

Hi! What's the reported MIC for CN(C)c1cc(NC(=O)CNC(C)(C)C)c(O)c2c1C[C@H]1C[C@H]3[C@H](N(C)C)C(O)=C(C(N)=O)C(=O)[C@@]3(O)C(O)=C1C2=O [TIGECYCLINE] on Acinetobacter baumannii?
0.25 µg/mL

Hi! What's the reported MIC for NCC[C@H](O)C(=O)N[C@@H]1C[C@H](N)[C@@H](O[C@H]2O[C@H](CN)[C@@H](O)[C@H](O)[C@H]2O)[C@H](O)[C@H]1O[C@H]1O[C@H](CO)[C@@H](O)[C@H](N)[C@H]1O [AMIKACIN] on Acinetobacter baumannii?
3 µg/mL

Hi! What's the reported MIC for C[C@H]1COc2c(N3CCN(C)CC3)c(F)cc3c(=O)c(C(=O)O)cn1c23.C[C@H]1COc2c(N3CCN(C)CC3)c(F)cc3c(=O)c(C(=O)O)cn1c23.O [LEVOFLOXACIN] on Acinetobacter baumannii?
> 6 µg/mL

Hi! What's the reported MIC for C[C@@H](O)[C@H]1C(=O)N2C(C(=O)O)=C(S[C@@H]3CN[C@H](C(=O)N(C)C)C3)[C@H](C)[C@H]12 [MEROPENEM] on Acinetobacter baumannii?
0.75 µg/mL

Hi! What's the reported MIC for CC(C)(O/N=C(\C(=O)N[C@@H]1C(=O)N2C(C(=O)[O-])=C(C[n+]3ccccc3)CS[C@H]12)c1csc(N)n1)C(=O)O [CEFTAZIDIME] on Acinetobacter baumannii?
12 µg/mL
